Target: Isocitrate dehydrogenase [NADP] cytoplasmic (Homo sapiens, UniProt O75874, R132C)
Sequence (O75874 2-414 R132C limits assumed): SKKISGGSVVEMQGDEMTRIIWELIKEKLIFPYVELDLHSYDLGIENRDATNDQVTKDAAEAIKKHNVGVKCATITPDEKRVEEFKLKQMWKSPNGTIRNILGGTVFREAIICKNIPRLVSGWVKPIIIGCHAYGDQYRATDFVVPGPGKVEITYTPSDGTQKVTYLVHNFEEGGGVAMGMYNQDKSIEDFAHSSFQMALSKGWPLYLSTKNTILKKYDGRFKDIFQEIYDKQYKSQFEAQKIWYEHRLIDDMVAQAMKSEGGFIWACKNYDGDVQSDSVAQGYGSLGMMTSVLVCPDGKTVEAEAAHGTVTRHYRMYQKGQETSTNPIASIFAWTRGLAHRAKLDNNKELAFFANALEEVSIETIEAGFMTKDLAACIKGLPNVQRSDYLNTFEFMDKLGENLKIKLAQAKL
Experiment: Inhibition of IDH1 R132C mutant (unknown origin) assessed as reduction in NADPH consumption using alpha-KG as substrate incubated for 5 mins by diaphorase/resazurin-coupled system
This section presents molecules with their documented pIC50 values.
Expect pIC50 as a plain number equal to -log10 of the molar concentration.

CCc1cccc(CC)c1-n1c(C)c(C(=O)N2CCN(C)CC2)cc(-c2nc(-c3ccc(Cl)cc3)cs2)c1=O :: 5.92
CCc1cccc(CC)c1-n1c(C)c(C(=O)N2CCOCC2)cc(-c2nc(-c3ccc(Cl)cc3)cs2)c1=O :: 5.39
CCc1cccc(CC)c1-n1c(C)c(C(=O)NCC(=O)O)cc(-c2nc(-c3ccc(Cl)cc3)cs2)c1=O :: 4.96

Problem: For the molecule shown here, CCc1cccc(CC)c1-n1c(C(C)C)c(C(=O)N2CCNCC2)cc(-c2nc(-c3ccc(Cl)cc3)cs2)c1=O , give the reported pIC50.
Result: 6.41

* * *

Test system: Isocitrate dehydrogenase [NADP] cytoplasmic (Homo sapiens), O75874 [R132H]
Sequence (O75874 whole entry R132H): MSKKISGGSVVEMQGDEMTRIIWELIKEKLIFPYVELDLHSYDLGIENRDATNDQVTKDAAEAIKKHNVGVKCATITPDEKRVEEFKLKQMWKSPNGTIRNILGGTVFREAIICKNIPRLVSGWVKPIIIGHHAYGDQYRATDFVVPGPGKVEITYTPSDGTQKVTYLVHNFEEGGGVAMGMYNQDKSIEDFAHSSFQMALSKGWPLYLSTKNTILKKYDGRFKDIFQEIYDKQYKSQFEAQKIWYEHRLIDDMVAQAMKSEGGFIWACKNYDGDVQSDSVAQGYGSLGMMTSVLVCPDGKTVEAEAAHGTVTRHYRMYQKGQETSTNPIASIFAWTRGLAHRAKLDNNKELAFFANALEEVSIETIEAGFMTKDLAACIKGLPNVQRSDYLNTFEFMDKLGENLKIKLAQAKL
Experiment: Inhibition of IDH1 R132H mutant (unknown origin) assessed as reduction in NADPH consumption using alpha-KG as substrate at 38 uM incubated for 5 mins by diaphorase/resazurin-coupled system relative to control
test_readout: inhibition (%)
Please reply with the bare figure in % and do not write the unit itself.

COc1ccccc1-n1c2c(cc(-c3nc(-c4ccc(Cl)cc4)cs3)c1=O)C(=O)CC(C)(C)C2 :: 76
CCc1cccc(CC)c1-n1c(CC2CCOC2)c(C(=O)N2CCNCC2)cc(-c2nc(-c3ccc(Cl)cc3)cs2)c1=O (centres undefined) :: 105
COc1ccc(OC)c(-n2c3c(cc(-n4ccc(-c5ccccc5)n4)c2=O)C(=O)CC(C)(C)C3)c1 :: 71

Kindly review the next compound as well.
Problem: For the compound shown here, COc1ccc(OC)c(-n2c3c(cc(-c4nc(-c5ccc(Cl)cc5)cs4)c2=O)C(=O)CC(C)(C)C3)c1 , give the reported inhibition.
Result: 84

* * *

This section presents molecules with their documented t1/2 values.
Test: Metabolic stability in rat liver microsomes assessed as half life incubated for 15 mins by high resolution LC/MS analysis
Type: ADME, Microsome
Conditions: 0.25 h
Please reply with the bare figure in min and do not write the unit itself.

CCc1cccc(CC)c1-n1c(CC2CCNC2)c(C(=O)N2CCNCC2)cc(-c2nc(-c3ccc(Cl)cc3)cs2)c1=O (centres undefined) :: 7

Kindly review the next molecule as well.
Problem: For the molecule shown here, CCc1cccc(CC)c1-n1c(C=C(C)C)c(C(=O)N2CCNCC2)cc(-c2nc(-c3ccc(Cl)cc3)cs2)c1=O , give the reported t1/2.
Result: 14

* * *

This section presents molecules with their documented inhibition values.
System: Isocitrate dehydrogenase [NADP] cytoplasmic (Homo sapiens), O75874 [R132H]
Assay: Inhibition of IDH1 R132H mutant (unknown origin) assessed as reduction in NADPH consumption using alpha-KG as substrate at 38 uM incubated for 5 mins by diaphorase/resazurin-coupled system relative to control
Numeric answer plus unit only.

CC(C)n1c2c(cc(-c3nc(-c4ccc(Cl)cc4)cs3)c1=O)C(=O)CC(C)(C)C2 :: 31%
COc1ccc(OC)c(-n2c3c(cc(-n4cc(-c5ccccc5)cn4)c2=O)C(=O)CC(C)(C)C3)c1 :: 31%
CCc1cccc(CC)c1-n1c(CCOC)c(C(=O)N2CCNCC2)cc(-c2nc(-c3ccc(Cl)cc3)cs2)c1=O :: 102%
COC(=O)c1ccsc1-n1c2c(cc(-c3nc(-c4ccc(Cl)cc4)cs3)c1=O)C(=O)CC(C)(C)C2 :: 94%
CC1(C)CC(=O)c2cc(-c3nc(-c4ccc(Cl)cc4)cs3)c(=O)n(-c3sccc3C#N)c2C1 :: 100%

Problem: Kindly state the measured inhibition obtained for CCc1cccc(CC)c1-n1c(C)c(C(=O)NC)cc(-c2nc(-c3ccc(Cl)cc3)cs2)c1=O with Isocitrate dehydrogenase [NADP] cytoplasmic (Homo sapiens), O75874 [R132H].
Result: 87%

Problem: Kindly state the measured inhibition obtained for COc1ccc(OC)c(-n2c3c(cc(-c4nc(-c5ccc(Cl)cc5)cs4)c2=O)C(=O)CC3)c1 with Isocitrate dehydrogenase [NADP] cytoplasmic (Homo sapiens), O75874 [R132H].
Result: 38%

Problem: Kindly state the measured inhibition obtained for CCc1cccc(C)c1-n1c2c(cc(-c3nc(-c4ccc(Cl)cc4)cs3)c1=O)C(=O)CC(C)(C)C2 with Isocitrate dehydrogenase [NADP] cytoplasmic (Homo sapiens), O75874 [R132H].
Result: 89%
